- assay.info: Evaluation of solubility in organic solvents (visual observation of complete dissolution)
- Assay type: physicochemical
- assay.conditions: chlorobenzene, 80° C.
- Experimental: [Evaluation of Solubility] The evaluation of the solubility of the synthesized compound was conducted by the following method. About 2-3 mg of the compound was precisely weighed, and each solvent was added to the compound such that a predetermined concentration of the solute (0.5 wt %, 0.3 wt %, 0.2 wt %, 0.1 wt %, 0.05 wt %, or 0.03 wt %) was reached. […]
metric.name: solubility (solute concentration completely dissolved)

molecule	result
FC(F)(F)c1cccc(-c2ccc(-c3c4c(c(-c5ccc(-c6cccc(C(F)(F)F)c6)s5)c5nsnc35)N=S=N4)s2)c1 [Compound (C2)]	≥ 0.1 wt %

Here's the next entry for you.
What does the data say about its solubility (solute concentration completely dissolved)? Entry: CCCCCCc1ccc(-c2ccc(-c3c4c(c(-c5ccc(-c6ccc(CCCCCC)c(OC(F)(F)F)c6)s5)c5nsnc35)N=S=N4)s2)cc1OC(F)(F)F [Compound (C11)]
≥ 0.5 wt %

====

- assay.info: Evaluation of solubility in organic solvents (visual observation of complete dissolution)
- Type: physicochemical
- assay.conditions: ortho-dichlorobenzene, 25° C.
solubility (solute concentration completely dissolved) for assorted compounds

Field: example entries. Status: answers known.
compound	result
CCCCCCc1cc(-c2ccc(-c3c4c(c(-c5ccc(-c6ccc(C#N)c(CCCCCC)c6)s5)c5nsnc35)N=S=N4)s2)ccc1C#N	≥ 0.03 wt %
CCCCCCc1cc(-c2ccc(-c3c4c(c(-c5ccc(-c6ccc(C(F)(F)F)c(CCCCCC)c6)s5)c5nsnc35)N=S=N4)s2)ccc1C(F)(F)F	≥ 0.03 wt %
FC(F)(F)c1ccccc1-c1ccc(-c2c3c(c(-c4ccc(-c5ccccc5C(F)(F)F)s4)c4nsnc24)N=S=N3)s1 [Compound (RR2), reference compound]	≥ 0.1 wt %

What does the data say about its solubility (solute concentration completely dissolved)? Entry: CCCCCCc1cc(-c2ccc(-c3c4c(c(-c5ccc(-c6cc(CCCCCC)c(C#N)c(CCCCCC)c6)s5)c5nsnc35)N=S=N4)s2)cc(CCCCCC)c1C#N
≥ 0.1 wt %

Entry to check: CCCCCCCCCCC(F)(F)c1cccc(-c2ccc(-c3c4c(c(-c5ccc(-c6cccc(C(F)(F)CCCCCCCCCC)c6)s5)c5nsnc35)N=S=N4)s2)c1
≥ 0.03 wt %

Entry to check: CCCCCCc1ccc(-c2ccc(-c3c4c(c(-c5ccc(-c6ccc(CCCCCC)c(C(F)(F)F)c6)s5)c5nsnc35)N=S=N4)s2)cc1C(F)(F)F
≥ 0.03 wt %

Entry to check: CCCCC(CC)Cc1ccc(-c2ccc(-c3c4c(c(-c5ccc(-c6ccc(CC(CC)CCCC)c(C(F)(F)F)c6)s5)c5nsnc35)N=S=N4)s2)cc1C(F)(F)F (stereo not shown)
≥ 0.3 wt %

====

solubility (solute concentration completely dissolved) for assorted compounds
- assay.info: Evaluation of solubility in organic solvents (visual observation of complete dissolution)
- Assay type: physicochemical
- assay.conditions: toluene, 80° C.

Field: example entries. Status: answers known.
compound	result
CCCCC(CC)Cc1cc(-c2ccc(-c3c4c(c(-c5ccc(-c6ccc(C(F)(F)F)c(CC(CC)CCCC)c6)s5)c5nsnc35)N=S=N4)s2)ccc1C(F)(F)F (stereo not drawn)	≥ 0.3 wt %
CCCCCCc1ccc(-c2ccc(-c3c4c(c(-c5ccc(-c6ccc(CCCCCC)c(C(F)(F)F)c6)s5)c5nsnc35)N=S=N4)s2)cc1C(F)(F)F	≥ 0.5 wt %

What does the data say about its solubility (solute concentration completely dissolved)? Entry: CCCCCCc1ccc(-c2ccc(-c3c4c(c(-c5ccc(-c6ccc(CCCCCC)c(OC(F)(F)F)c6)s5)c5nsnc35)N=S=N4)s2)cc1OC(F)(F)F
≥ 0.5 wt %

====

- assay.info: Evaluation of solubility in organic solvents (visual observation of complete dissolution)
- Format: physicochemical
- assay.conditions: chloroform, 25° C. (room temperature)
metric.name: solubility (solute concentration completely dissolved)

Field: example entries. Status: answers known.
compound	result
CCCCCCc1cc(-c2ccc(-c3c4c(c(-c5ccc(-c6cc(CCCCCC)c(C#N)c(CCCCCC)c6)s5)c5nsnc35)N=S=N4)s2)cc(CCCCCC)c1C#N [Compound (C22)]	≥ 0.1 wt %
CCCCCCCCCc1cc(-c2ccc(-c3c4c(c(-c5ccc(-c6ccc(C#N)c(CCCCCCCCC)c6)s5)c5nsnc35)N=S=N4)s2)ccc1C#N [Compound (C15)]	≥ 0.1 wt %
CCCCCCCCc1ccc(-c2ccc(-c3c4c(c(-c5ccc(-c6ccc(CCCCCCCC)c(C#N)c6)s5)c5nsnc35)N=S=N4)s2)cc1C#N [Compound (C26)]	≥ 0.2 wt %

What does the data say about its solubility (solute concentration completely dissolved)? Entry: CCCCC(CC)Cc1ccc(-c2ccc(-c3c4c(c(-c5ccc(-c6ccc(CC(CC)CCCC)c(C(F)(F)F)c6)s5)c5nsnc35)N=S=N4)s2)cc1C(F)(F)F (stereo not shown) [Compound (C31)]
≥ 0.2 wt %

====

solubility (solute concentration completely dissolved) for assorted molecules
- assay.info: Evaluation of solubility in organic solvents (visual observation of complete dissolution)
- Assay type: physicochemical
- assay.conditions: mesitylene, 80° C.

                                smiles_text      result
0  FC(F)(F)c1cccc(-c2ccc(-c3c4c(c(-c5ccc(-c6cccc(C(F)(F)F)c6)s5)c5nsnc35)N=S=N4)s2)c1  ≥ 0.1 wt %
1  FC(F)(F)Sc1cccc(-c2ccc(-c3c4c(c(-c5ccc(-c6cccc(SC(F)(F)F)c6)s5)c5nsnc35)N=S=N4)s2)c1  ≥ 0.1 wt %

Here's the next entry for you.
What does the data say about its solubility (solute concentration completely dissolved)? Entry: CCCCCCCCc1ccc(-c2ccc(-c3c4c(c(-c5ccc(-c6ccc(CCCCCCCC)c(C#N)c6)s5)c5nsnc35)N=S=N4)s2)cc1C#N
≥ 0.3 wt %

====

- assay.info: Evaluation of solubility in organic solvents (visual observation of complete dissolution)
- Type: physicochemical
- assay.conditions: chlorobenzene, 80° C.
metric.name: solubility (solute concentration completely dissolved)

Field: example entries. Status: answers known.
molecule	result
CCCCCCc1cc(-c2ccc(-c3c4c(c(-c5ccc(-c6ccc(OC(F)(F)F)c(CCCCCC)c6)s5)c5nsnc35)N=S=N4)s2)ccc1OC(F)(F)F [Compound (C12)]	≥ 0.5 wt %
CCCCCCCCCCCCCCCCc1cc(-c2ccc(-c3c4c(c(-c5ccc(-c6ccc(C#N)c(CCCCCCCCCCCCCCCC)c6)s5)c5nsnc35)N=S=N4)s2)ccc1C#N [Compound (C19)]	≥ 0.3 wt %
CCCCCCc1cc(-c2ccc(-c3c4c(c(-c5ccc(-c6ccc(C(F)(F)F)c(CCCCCC)c6)s5)c5nsnc35)N=S=N4)s2)ccc1C(F)(F)F [Compound (C10)]	≥ 0.3 wt %
CCCCCCCCCCc1cc(-c2ccc(-c3c4c(c(-c5ccc(-c6ccc(C#N)c(CCCCCCCCCC)c6)s5)c5nsnc35)N=S=N4)s2)ccc1C#N [Compound (C16)]	≥ 0.3 wt %
CCCC(C)CCc1cc(-c2ccc(-c3c4c(c(-c5ccc(-c6ccc(C#N)c(CCC(C)CCC)c6)s5)c5nsnc35)N=S=N4)s2)ccc1C#N (stereo not drawn) [Compound (C21)]	≥ 0.3 wt %
CCCCCCCCc1cc(-c2ccc(-c3c4c(c(-c5ccc(-c6ccc(C#N)c(CCCCCCCC)c6)s5)c5nsnc35)N=S=N4)s2)ccc1C#N [Compound (C14)]	≥ 0.3 wt %
CCCCCCCCCCCCc1cc(-c2ccc(-c3c4c(c(-c5ccc(-c6ccc(C#N)c(CCCCCCCCCCCC)c6)s5)c5nsnc35)N=S=N4)s2)ccc1C#N [Compound (C17)]	≥ 0.3 wt %
FC(F)(F)Sc1cccc(-c2ccc(-c3c4c(c(-c5ccc(-c6cccc(SC(F)(F)F)c6)s5)c5nsnc35)N=S=N4)s2)c1 [Compound (C6)]	≥ 0.1 wt %

Here's the next entry for you.
What does the data say about its solubility (solute concentration completely dissolved)? Entry: CCCCCCCc1cc(-c2ccc(-c3c4c(c(-c5ccc(-c6ccc(C#N)c(CCCCCCC)c6)s5)c5nsnc35)N=S=N4)s2)ccc1C#N [Compound (C13)]
≥ 0.3 wt %
